- target: PvENT1 (Plasmodium vivax, UniProt A5K8B0)
- Sequence (A5K8B0 1-416): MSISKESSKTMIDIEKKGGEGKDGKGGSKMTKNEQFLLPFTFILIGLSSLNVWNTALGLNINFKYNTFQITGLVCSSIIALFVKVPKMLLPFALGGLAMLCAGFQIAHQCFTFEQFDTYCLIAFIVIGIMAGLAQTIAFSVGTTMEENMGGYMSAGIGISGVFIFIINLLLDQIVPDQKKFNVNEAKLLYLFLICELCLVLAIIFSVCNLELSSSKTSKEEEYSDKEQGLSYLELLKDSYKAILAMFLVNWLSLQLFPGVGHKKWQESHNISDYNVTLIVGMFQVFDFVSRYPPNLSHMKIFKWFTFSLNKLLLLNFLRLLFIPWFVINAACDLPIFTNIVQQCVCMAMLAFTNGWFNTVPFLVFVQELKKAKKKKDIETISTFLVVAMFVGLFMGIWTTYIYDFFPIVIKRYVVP
- assayInfo: Inhibition of [3H]adenosine uptake into PvENT1-expressing yeast
- Type: cell-based
- testParameters: IC50 for inhibition of [^3H]Adenosine by indicated pyrimidine, 50 nM [3H]adenosine, 15 min, PvENT1-expressing yeast, mean ± SD
So I've got a bunch of molecules here, and I need their pIC50 values.
Give bare numbers, as −log10 of the molar value.

molecule: O=c1ccn([C@@H]2O[C@H](CO)[C@@H](O)[C@H]2O)c(=O)[nH]1 [Uridine]
observedProperty: pIC50
assayValue: 2.76
//
molecule: Cc1cn([C@H]2C[C@H](O)[C@@H](CO)O2)c(=O)[nH]c1=O [Thymidine]
observedProperty: pIC50
assayValue: 3.74
//
molecule: Cc1c[nH]c(=O)[nH]c1=O [Thymine]
observedProperty: pIC50
assayValue: 3.25

Each molecule below has a reported value. Please supply its pIC50.
1. Nc1cc[nH]c(=O)n1 [Cytosine]
2. O=c1cc[nH]c(=O)[nH]1 [Uracil]

1. 2.21
2. 2.47

Please provide the recorded pIC50 for O=c1[nH]c(=O)n([C@@H]2O[C@H](CO)[C@@H](O)[C@H]2O)cc1F [5-Fluorouridine (5-FUrd), 5-Fluorouridine] , tested on PvENT1 (Plasmodium vivax, UniProt A5K8B0).
2.75

====

- target: PvENT1 (Plasmodium vivax, UniProt A5K8B0)
- assayInfo: Inhibition of [3H]uridine uptake into PvENT1-expressing yeast
- Assay type: cell-based
- testParameters: IC50 for inhibition of [^3H]Uridine by indicated purine, 250 nM [3H]uridine, 15 min, PvENT1-expressing yeast, mean ± SD
observedProperty: pIC50
Give bare numbers, as −log10 of the molar value.

compound: O=c1[nH]cnc2nc[nH]c12 [Hypoxanthine]
pIC50: 4.00

Count: 7. Required value per item: pIC50.
1. Nc1nc2c(ncn2[C@@H]2O[C@H](CO)[C@@H](O)[C@H]2O)c(=O)[nH]1 [Guanosine]
2. Nc1ncnc2c1ncn2[C@@H]1O[C@H](CO)[C@@H](O)[C@H]1O [Adenosine]
3. Nc1nc2nc[nH]c2c(=O)[nH]1 [Guanine]
4. O=c1[nH]c(=O)c2ncn([C@@H]3O[C@H](CO)[C@@H](O)[C@H]3O)c2[nH]1 [Xanthosine]
5. O=c1[nH]c(=O)c2[nH]cnc2[nH]1 [Xanthine]
6. Nc1ncnc2[nH]cnc12 [Adenine]
7. OC[C@H]1O[C@@H](n2cnc3c(O)ncnc32)[C@H](O)[C@@H]1O [Inosine]

4.83
3.85
2.20
2.37
2.59
2.84
5.42

====

Record form. Attribute: IC50. Fill in for each entry.
- target: UniProtKB A5K8B0
- assayInfo: Inhibition of [3H]adenosine uptake into PvENT1-expressing yeast
- Type: cell-based
- testParameters: read-out: [^3H]Adenosine uptake inhibition IC50; hENT1 inhibitors and toxic purine analogs; 50 nM [3H]adenosine; concentrations up to 20 mM; mean ± SD, n = 3

compound: Nc1ncnc2c1ccn2[C@@H]1O[C@H](CO)[C@@H](O)[C@H]1O
assayValue: > 20 mM

// moving on: another record for IC50
What value of IC50 has been reported for the following compound? O=[N+]([O-])c1ccc(CSc2ncnc3c2ncn3C2OC(CO)C(O)C2O)cc1 (centres unmarked)
> 20 mM

====

Exercise: state measured pIC50 for each of the compounds provided.
- target: PvENT1 (Plasmodium vivax, UniProt A5K8B0)
- assayInfo: Inhibition of [3H]adenosine uptake into PvENT1-expressing yeast
- Format: cell-based
- testParameters: IC50 for inhibition of [^3H]substrate uptake by the indicated purine, WT, Table 4, WT PvENT1, radiolabel [3H]adenosine (#)
Answers are plain numbers, as −log10 of the molar value.

structureNotation: OC[C@H]1O[C@@H](n2cnc3c(O)ncnc32)[C@H](O)[C@@H]1O
target: PvENT1 (Plasmodium vivax, UniProt A5K8B0)
assayValue: 5.30

Kindly consider the entry below.
Could you share which pIC50 value was measured for O=c1[nH]cnc2nc[nH]c12 ?
3.85

Reference source for all entries: paper PMC4706624
